Target: full-length kinase/Nluc fusion proteins (Homo sapiens, UniProt Q16832)
Sequence (Q16832 22-855): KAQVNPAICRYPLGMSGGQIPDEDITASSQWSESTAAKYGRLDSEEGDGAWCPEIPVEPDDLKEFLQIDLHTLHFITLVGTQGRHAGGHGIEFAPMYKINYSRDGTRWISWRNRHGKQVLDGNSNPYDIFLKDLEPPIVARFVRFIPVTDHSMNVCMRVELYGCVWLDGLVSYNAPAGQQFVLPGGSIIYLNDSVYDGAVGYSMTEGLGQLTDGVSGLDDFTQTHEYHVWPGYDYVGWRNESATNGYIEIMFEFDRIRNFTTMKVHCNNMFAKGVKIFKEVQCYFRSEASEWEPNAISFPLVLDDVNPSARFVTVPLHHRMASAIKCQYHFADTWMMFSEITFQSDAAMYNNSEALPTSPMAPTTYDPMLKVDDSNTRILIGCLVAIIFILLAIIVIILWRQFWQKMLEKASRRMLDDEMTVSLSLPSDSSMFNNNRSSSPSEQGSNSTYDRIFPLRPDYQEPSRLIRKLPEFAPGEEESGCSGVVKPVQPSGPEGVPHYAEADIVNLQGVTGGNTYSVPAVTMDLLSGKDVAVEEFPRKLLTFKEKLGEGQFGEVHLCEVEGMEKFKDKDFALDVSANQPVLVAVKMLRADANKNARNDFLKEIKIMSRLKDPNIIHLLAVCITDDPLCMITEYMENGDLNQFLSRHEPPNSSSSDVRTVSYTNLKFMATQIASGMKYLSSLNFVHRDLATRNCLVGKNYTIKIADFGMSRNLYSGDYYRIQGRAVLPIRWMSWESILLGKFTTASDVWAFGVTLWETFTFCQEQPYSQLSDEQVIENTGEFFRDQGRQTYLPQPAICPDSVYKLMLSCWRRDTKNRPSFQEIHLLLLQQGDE
Assay: Apparent affinity (EC50) of energy transfer probes by titration onto live HEK293 cells expressing kinase/Nluc fusions (Table S1)
Conditions: DDR2, Nluc C; read-out: Probe EC50
measurementType: pEC50
Scale: negative log10 of molar concentration, which is what pEC50 denotes.

Which value of pEC50 has been reported for Cc1nc(Nc2ncc(C(=O)Nc3c(C)cccc3Cl)s2)cc(N2CCN(CCOCCNC(=O)CCc3ccc4n3[B-](F)(F)[N+]3=C(c5ccc[nH]5)C=CC3=C4)CC2)n1 [Energy Transfer Probe 6] in the records?
7.00

---

Molecular target: full-length kinase/Nluc fusion proteins (Homo sapiens, UniProt Q15349)
Sequence (Q15349 whole entry, the tested form may be a part): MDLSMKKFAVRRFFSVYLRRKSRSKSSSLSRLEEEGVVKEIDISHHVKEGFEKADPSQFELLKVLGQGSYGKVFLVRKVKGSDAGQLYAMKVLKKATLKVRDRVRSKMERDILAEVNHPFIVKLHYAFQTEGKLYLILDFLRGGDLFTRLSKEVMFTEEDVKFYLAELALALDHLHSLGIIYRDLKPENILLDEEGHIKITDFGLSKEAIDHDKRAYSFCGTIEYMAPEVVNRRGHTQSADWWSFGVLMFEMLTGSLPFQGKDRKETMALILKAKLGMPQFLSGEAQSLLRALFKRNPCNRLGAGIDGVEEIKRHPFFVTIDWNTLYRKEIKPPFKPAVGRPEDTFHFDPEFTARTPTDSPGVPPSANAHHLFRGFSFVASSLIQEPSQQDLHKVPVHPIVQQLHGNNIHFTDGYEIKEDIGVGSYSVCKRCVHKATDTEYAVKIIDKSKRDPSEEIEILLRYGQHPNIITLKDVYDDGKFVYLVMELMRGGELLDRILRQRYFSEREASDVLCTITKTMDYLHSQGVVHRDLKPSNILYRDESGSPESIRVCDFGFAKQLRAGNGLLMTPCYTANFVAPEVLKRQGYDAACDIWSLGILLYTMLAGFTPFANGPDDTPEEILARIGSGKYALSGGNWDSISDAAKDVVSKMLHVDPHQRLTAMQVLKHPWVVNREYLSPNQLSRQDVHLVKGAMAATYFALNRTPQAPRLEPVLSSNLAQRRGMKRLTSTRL
Assay: Apparent affinity (EC50) of energy transfer probes by titration onto live HEK293 cells expressing kinase/Nluc fusions (Table S1)
Details: RPS6KA2 (NP_001305865), Nluc orientation N; read-out: Probe EC50
measurementType: EC50 (nM)
Report the figure in nM without appending any unit label.

Which value of EC50 has been reported for CNC(=O)c1ccccc1Nc1nc(Nc2ccc(N3CCN(C(=O)CCOCCOCCOCCOCCNC(=O)CCc4ccc5n4[B-](F)(F)[N+]4=C(c6ccc[nH]6)C=CC4=C5)CC3)cc2)ncc1Cl [Energy Transfer Probe 5] in the records?
600

---

Target: full-length kinase/Nluc fusion proteins (Homo sapiens, UniProt Q02763)
Test: Apparent affinity (EC50) of energy transfer probes by titration onto live HEK293 cells expressing kinase/Nluc fusions (Table S1)
Conditions: TEK (NP_000450), Nluc orientation C; read-out: Probe EC50
measurementType: pEC50
Scale: negative log10 of molar concentration, which is what pEC50 denotes.

Which value of pEC50 has been reported for CNC(=O)c1ccccc1Nc1nc(Nc2ccc(N3CCN(C(=O)CCOCCOCCOCCOCCNC(=O)CCc4ccc5n4[B-](F)(F)[N+]4=C(c6ccc[nH]6)C=CC4=C5)CC3)cc2)ncc1Cl [Energy Transfer Probe 5] in the records?
6.40

---

Molecular target: full-length kinase/Nluc fusion proteins (Homo sapiens)
Test: Apparent affinity (EC50) of energy transfer probes by titration onto live HEK293 cells expressing kinase/Nluc fusions (Table S1)
Conditions: CDK7, Nluc C; read-out: Probe EC50
measurementType: pEC50
Scale: negative log10 of molar concentration, which is what pEC50 denotes.

Which value of pEC50 has been reported for CNC(=O)c1ccccc1Nc1nc(Nc2ccc(N3CCN(C(=O)CCOCCOCCOCCOCCNC(=O)CCc4ccc5n4[B-](F)(F)[N+]4=C(c6ccc[nH]6)C=CC4=C5)CC3)cc2)ncc1Cl [Energy Transfer Probe 5] in the records?
6.52

---

Target: full-length kinase/Nluc fusion proteins (Homo sapiens, UniProt P53667)
Sequence (P53667 whole entry, the tested form may be a part): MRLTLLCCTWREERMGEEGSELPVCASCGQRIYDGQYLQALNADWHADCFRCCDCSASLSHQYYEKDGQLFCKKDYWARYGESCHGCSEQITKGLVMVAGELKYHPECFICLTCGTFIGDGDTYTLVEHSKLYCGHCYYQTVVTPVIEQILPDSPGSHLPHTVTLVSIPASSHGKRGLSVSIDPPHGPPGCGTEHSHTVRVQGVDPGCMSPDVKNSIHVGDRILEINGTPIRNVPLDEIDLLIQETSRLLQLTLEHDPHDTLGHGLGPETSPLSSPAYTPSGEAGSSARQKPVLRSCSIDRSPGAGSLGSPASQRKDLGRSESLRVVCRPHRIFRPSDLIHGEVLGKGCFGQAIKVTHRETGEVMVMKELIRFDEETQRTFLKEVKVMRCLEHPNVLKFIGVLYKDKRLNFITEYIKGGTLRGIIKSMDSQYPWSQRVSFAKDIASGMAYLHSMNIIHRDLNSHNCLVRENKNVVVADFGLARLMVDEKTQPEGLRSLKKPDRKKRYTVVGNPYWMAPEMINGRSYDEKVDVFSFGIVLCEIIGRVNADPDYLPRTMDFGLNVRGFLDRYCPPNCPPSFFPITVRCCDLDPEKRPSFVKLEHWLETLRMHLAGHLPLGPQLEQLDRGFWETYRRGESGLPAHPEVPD
Experiment: Apparent affinity (EC50) of energy transfer probes by titration onto live HEK293 cells expressing kinase/Nluc fusions (Table S1)
Conditions: LIMK1, Nluc C; read-out: Probe EC50
pEC50: −log10 of the molar value.
measurementType: pEC50

Which value of pEC50 has been reported for CNC(=O)c1ccccc1Nc1nc(Nc2ccc(N3CCN(C(=O)CCOCCOCCOCCOCCNC(=O)CCc4ccc5n4[B-](F)(F)[N+]4=C(c6ccc[nH]6)C=CC4=C5)CC3)cc2)ncc1Cl [Energy Transfer Probe 5] in the records?
< 6.00

---

Biological target: full-length kinase/Nluc fusion proteins (Homo sapiens, UniProt O14936)
Sequence (O14936 whole entry, the tested form may be a part): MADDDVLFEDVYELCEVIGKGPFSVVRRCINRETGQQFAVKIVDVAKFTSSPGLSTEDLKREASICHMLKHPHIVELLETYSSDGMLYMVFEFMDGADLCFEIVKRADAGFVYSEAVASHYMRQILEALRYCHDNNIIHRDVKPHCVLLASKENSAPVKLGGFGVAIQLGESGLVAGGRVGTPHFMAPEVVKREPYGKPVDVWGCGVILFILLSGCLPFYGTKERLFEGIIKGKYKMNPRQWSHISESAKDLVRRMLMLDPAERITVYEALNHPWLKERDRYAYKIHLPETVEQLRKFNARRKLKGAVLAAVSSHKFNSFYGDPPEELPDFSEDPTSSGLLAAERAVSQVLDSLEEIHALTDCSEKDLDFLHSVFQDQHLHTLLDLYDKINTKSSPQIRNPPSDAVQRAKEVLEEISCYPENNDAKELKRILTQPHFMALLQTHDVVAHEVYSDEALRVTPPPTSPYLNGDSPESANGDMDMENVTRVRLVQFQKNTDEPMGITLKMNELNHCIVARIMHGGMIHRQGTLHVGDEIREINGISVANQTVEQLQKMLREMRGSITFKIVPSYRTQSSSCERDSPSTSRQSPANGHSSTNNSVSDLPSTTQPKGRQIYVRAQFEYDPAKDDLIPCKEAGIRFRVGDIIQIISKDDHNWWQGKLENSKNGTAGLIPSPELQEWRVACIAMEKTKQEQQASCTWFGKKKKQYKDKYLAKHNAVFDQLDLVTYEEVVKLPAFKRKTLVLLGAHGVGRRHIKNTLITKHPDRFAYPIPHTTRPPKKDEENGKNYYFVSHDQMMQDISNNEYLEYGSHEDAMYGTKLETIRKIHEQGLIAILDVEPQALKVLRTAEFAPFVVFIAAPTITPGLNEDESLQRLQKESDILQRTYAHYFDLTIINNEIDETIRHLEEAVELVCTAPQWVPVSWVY
Experiment: Apparent affinity (EC50) of energy transfer probes by titration onto live HEK293 cells expressing kinase/Nluc fusions (Table S1)
Settings: CASK, Nluc N; read-out: Probe EC50
measurementType: EC50

Which value of EC50 has been reported for CNC(=O)c1ccccc1Nc1nc(Nc2ccc(N3CCN(C(=O)CCOCCOCCOCCOCCNC(=O)CCc4ccc5n4[B-](F)(F)[N+]4=C(c6ccc[nH]6)C=CC4=C5)CC3)cc2)ncc1Cl [Energy Transfer Probe 5] in the records?
> 1000 nM

---

Target: full-length kinase/Nluc fusion proteins (Homo sapiens, UniProt O15146)
Sequence (O15146 24-869): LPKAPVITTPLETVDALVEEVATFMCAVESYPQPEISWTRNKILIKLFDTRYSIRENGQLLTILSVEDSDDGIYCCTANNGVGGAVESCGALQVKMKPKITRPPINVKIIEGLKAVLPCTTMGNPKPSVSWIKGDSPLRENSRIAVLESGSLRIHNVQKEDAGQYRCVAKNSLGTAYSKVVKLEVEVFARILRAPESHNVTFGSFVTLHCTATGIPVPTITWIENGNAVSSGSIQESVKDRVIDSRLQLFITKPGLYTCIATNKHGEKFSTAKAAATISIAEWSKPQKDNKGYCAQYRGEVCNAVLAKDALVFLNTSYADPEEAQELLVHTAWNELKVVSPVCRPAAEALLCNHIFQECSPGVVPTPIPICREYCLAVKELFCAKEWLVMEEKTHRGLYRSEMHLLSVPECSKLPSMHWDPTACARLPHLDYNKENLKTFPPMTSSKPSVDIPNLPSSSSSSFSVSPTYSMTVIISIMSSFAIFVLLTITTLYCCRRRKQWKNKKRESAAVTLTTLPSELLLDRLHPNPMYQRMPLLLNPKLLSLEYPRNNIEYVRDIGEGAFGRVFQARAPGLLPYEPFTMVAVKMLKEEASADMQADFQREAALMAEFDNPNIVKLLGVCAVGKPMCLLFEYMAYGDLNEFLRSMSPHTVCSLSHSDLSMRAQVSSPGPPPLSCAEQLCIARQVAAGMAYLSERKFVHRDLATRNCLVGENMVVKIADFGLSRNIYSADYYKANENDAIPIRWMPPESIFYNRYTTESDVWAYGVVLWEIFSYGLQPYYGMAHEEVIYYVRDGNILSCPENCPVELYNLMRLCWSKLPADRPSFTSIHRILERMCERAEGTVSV
Assay: Apparent affinity (EC50) of energy transfer probes by titration onto live HEK293 cells expressing kinase/Nluc fusions (Table S1)
Conditions: MUSK, Nluc C; read-out: Probe EC50
pEC50: −log10 of the molar value.
measurementType: pEC50

API: value(readout= pEC50, system= full-length kinase/Nluc fusion proteins (Homo sapiens, UniProt O15146), query= CNC(=O)c1ccccc1Nc1nc(Nc2ccc(N3CCN(C(=O)CCOCCOCCOCCOCCNC(=O)CCc4ccc5n4[B-](F)(F)[N+]4=C(c6ccc[nH]6)C=CC4=C5)CC3)cc2)ncc1Cl [Energy Transfer Probe 5] )
< 6.00

---

Biological target: LCK (Homo sapiens, UniProt P06239)
Sequence (P06239 whole entry): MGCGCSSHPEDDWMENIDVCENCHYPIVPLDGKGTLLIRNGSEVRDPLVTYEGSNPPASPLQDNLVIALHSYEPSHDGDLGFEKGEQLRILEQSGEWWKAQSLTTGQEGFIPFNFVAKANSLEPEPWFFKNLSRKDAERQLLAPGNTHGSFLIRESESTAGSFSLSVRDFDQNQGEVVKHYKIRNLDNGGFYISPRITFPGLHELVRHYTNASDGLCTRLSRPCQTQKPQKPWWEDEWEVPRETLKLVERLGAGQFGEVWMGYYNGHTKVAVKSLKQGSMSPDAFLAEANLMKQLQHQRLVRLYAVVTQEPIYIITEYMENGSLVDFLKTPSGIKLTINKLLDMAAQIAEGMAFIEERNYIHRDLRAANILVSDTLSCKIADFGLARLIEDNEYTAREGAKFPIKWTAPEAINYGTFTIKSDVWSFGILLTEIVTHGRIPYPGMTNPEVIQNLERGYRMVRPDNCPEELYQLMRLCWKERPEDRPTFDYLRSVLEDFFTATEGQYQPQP
Test: NanoBRET target engagement, LCK-NanoLuc, HEK293 cells (live, ATP depleted, permeabilized)
Type: binding
Conditions: LCK-NanoLuc; ATP Depleted; read-out: Tracer Affinity EC50
measurementType: pEC50
Scale: negative log10 of molar concentration, which is what pEC50 denotes.

Which value of pEC50 has been reported for CNC(=O)c1ccccc1Nc1nc(Nc2ccc(N3CCN(C(=O)CCOCCOCCOCCOCCNC(=O)CCc4ccc5n4[B-](F)(F)[N+]4=C(c6ccc[nH]6)C=CC4=C5)CC3)cc2)ncc1Cl [Energy Transfer Probe 5] in the records?
6.43

---

Biological target: full-length kinase/Nluc fusion proteins (Homo sapiens, UniProt P54753)
Sequence (P54753 34-998): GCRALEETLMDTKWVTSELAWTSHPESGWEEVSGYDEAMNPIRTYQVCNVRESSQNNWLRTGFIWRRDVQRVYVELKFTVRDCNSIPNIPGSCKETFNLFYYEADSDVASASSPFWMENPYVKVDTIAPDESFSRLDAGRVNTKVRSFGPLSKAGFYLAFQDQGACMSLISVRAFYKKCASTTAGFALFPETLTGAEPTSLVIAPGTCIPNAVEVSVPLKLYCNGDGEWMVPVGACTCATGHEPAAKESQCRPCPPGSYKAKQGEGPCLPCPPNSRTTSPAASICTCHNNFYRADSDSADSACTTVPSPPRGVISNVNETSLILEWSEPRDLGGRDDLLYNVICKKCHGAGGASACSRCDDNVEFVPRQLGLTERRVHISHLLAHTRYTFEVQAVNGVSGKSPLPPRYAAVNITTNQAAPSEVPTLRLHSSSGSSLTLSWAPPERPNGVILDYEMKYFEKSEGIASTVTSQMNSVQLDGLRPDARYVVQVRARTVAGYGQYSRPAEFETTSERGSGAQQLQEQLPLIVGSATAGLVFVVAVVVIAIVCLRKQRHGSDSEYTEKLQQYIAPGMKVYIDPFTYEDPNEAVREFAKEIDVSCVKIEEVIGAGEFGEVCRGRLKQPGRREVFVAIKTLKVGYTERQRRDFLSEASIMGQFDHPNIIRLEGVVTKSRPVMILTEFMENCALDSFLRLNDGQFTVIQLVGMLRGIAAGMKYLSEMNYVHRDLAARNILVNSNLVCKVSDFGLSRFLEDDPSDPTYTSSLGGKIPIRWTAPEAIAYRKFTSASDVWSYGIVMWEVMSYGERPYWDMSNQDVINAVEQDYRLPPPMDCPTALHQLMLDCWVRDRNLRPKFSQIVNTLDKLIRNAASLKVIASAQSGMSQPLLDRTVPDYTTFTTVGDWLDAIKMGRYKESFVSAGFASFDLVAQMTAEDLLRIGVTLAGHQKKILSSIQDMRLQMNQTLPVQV
Test: Apparent affinity (EC50) of energy transfer probes by titration onto live HEK293 cells expressing kinase/Nluc fusions (Table S1)
Conditions: EPHB3, Nluc C; read-out: Probe EC50
measurementType: EC50 (µM)
Report the figure in µM without appending any unit label.

API: value(readout= EC50, system= full-length kinase/Nluc fusion proteins (Homo sapiens, UniProt P54753), query= Cc1nc(Nc2ncc(C(=O)Nc3c(C)cccc3Cl)s2)cc(N2CCN(CCOCCNC(=O)CCc3ccc4n3[B-](F)(F)[N+]3=C(c5ccc[nH]5)C=CC3=C4)CC2)n1 [Energy Transfer Probe 6] )
0.2

---

Target: full-length kinase/Nluc fusion proteins (Homo sapiens)
Assay: Apparent affinity (EC50) of energy transfer probes by titration onto live HEK293 cells expressing kinase/Nluc fusions (Table S1)
Conditions: YES1 (NP_005424), Nluc orientation C; read-out: Probe EC50
measurementType: pEC50
Scale: negative log10 of molar concentration, which is what pEC50 denotes.

API: value(readout= pEC50, system= full-length kinase/Nluc fusion proteins (Homo sapiens), query= Cc1nc(Nc2ncc(C(=O)Nc3c(C)cccc3Cl)s2)cc(N2CCN(CCOCCNC(=O)CCc3ccc4n3[B-](F)(F)[N+]3=C(c5ccc[nH]5)C=CC3=C4)CC2)n1 [Energy Transfer Probe 6] )
6.22

---

Target: full-length kinase/Nluc fusion proteins (Homo sapiens, UniProt P45983)
Sequence (P45983 whole entry, the tested form may be a part): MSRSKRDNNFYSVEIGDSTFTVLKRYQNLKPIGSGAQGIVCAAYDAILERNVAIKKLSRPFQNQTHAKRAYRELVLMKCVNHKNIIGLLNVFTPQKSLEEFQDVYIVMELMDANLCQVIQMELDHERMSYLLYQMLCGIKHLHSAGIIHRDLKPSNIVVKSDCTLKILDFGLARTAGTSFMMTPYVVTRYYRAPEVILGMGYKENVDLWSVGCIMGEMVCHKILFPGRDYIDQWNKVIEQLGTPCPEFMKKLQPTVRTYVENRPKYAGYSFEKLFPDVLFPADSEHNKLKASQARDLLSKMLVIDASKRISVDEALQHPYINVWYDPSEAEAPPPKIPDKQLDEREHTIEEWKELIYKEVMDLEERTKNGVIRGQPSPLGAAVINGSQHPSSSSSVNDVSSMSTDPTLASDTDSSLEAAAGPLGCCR
Assay: Apparent affinity (EC50) of energy transfer probes by titration onto live HEK293 cells expressing kinase/Nluc fusions (Table S1)
Assay type: binding
Conditions: MAPK8, Nluc N; read-out: Probe EC50
measurementType: EC50 (nM)
Report the figure in nM without appending any unit label.

Which value of EC50 has been reported for CNC(=O)c1ccccc1Nc1nc(Nc2ccc(N3CCN(C(=O)CCOCCOCCOCCOCCNC(=O)CCc4ccc5n4[B-](F)(F)[N+]4=C(c6ccc[nH]6)C=CC4=C5)CC3)cc2)ncc1Cl [Energy Transfer Probe 5] in the records?
300
